experiment: Highest frequency of moderate liver toxicity observed during clinical trials, expressed as a percentage. [column '% BIOL' in source]; settings: human
Items are presented alongside their recorded Hepatotoxicity (moderate).
Give the quantity in %, number only.

Take a look at these entries with their results.
{"columns": ["substance", "endpointLabel", "observedResult"],
 "data": [
  ["LOBAPLATIN", "Hepatotoxicity (moderate)", 3.7],
  ["CISPLATIN", "Hepatotoxicity (moderate)", 93],
  ["ASPARAGINASE", "Hepatotoxicity (moderate)", 63],
  ["GEMTUZUMAB OZOGAMICIN", "Hepatotoxicity (moderate)", 47.8]
]}

State the recorded Hepatotoxicity (moderate) for this entry: "PARAFFIN" 0

State the recorded Hepatotoxicity (moderate) for this entry: "POVIDONE-IODINE" 80

State the recorded Hepatotoxicity (moderate) for this entry: "BLEOMYCIN" 0

State the recorded Hepatotoxicity (moderate) for this entry: "POVIDONE" 0

State the recorded Hepatotoxicity (moderate) for this entry: "ALTEPLASE" 21.2

----------
Items are presented alongside their recorded Hepatotoxicity (time to onset).
test: Times to onset, minimal and maximal, observed in the indexed observations. [column 'DELAI' in source]; conditions: human

Take a look at these entries with their results.
{"columns": ["chemicalString", "Hepatotoxicity (time to onset)"],
 "data": [
  ["O=c1[nH]cnc2c1ncn2[C@H]1CC[C@@H](CO)O1", "5 days - 8 years"],
  ["O=C(O)c1cc(-c2ccc(F)cc2F)ccc1O", "1 week - 1 month"],
  ["CCOC(=O)[C@H](CCc1ccccc1)N[C@H]1CCCN2CCC[C@@H](C(=O)O)N2C1=O", "2 months"]
]}

State the recorded Hepatotoxicity (time to onset) for this entry: "C[C@H]1c2cccc(O)c2C(=O)C2=C(O)[C@]3(O)C(=O)C(C(N)=O)=C(O)[C@@H](N(C)C)[C@@H]3[C@@H](O)[C@@H]21.O" 1 day - 12 years

State the recorded Hepatotoxicity (time to onset) for this entry: "Nc1ccc(O)c(C(=O)O)c1" 1 day - 1 year

State the recorded Hepatotoxicity (time to onset) for this entry: "COc1ccc2c(c1)c(CC(=O)OCC(=O)O)c(C)n2C(=O)c1ccc(Cl)cc1" 12 weeks

----------
settings: human, serum
endpointLabel: Hepatotoxicity (acute)
Format: numeric value only, no unit, no commentary.

Take a look at these entries with their results.
{"columns": ["compound", "endpointLabel", "observedResult"],
 "data": [
  ["O=C1Nc2ccccc2C1(c1ccc(O)cc1)c1ccc(O)cc1", "Hepatotoxicity (acute)", 6],
  ["CC(=O)c1ccc2c(c1)N(CCCN1CCC(CCO)CC1)c1ccccc1S2", "Hepatotoxicity (acute)", 0]
]}

State the recorded Hepatotoxicity (acute) for this entry: "Nc1nc2[nH]cc(CCc3ccc(C(=O)N[C@@H](CCC(=O)O)C(=O)O)cc3)c2c(=O)[nH]1" 0

----------
settings: human
endpointLabel: Hepatotoxicity (cirrhosis)
Format: numeric value only, no unit, no commentary.

Take a look at these entries with their results.
{"columns": ["compound", "Hepatotoxicity (cirrhosis)"],
 "data": [
  ["CCCC(C)(COC(N)=O)COC(=O)NC(C)C (configuration not stated)", 0],
  ["OCCOCCN1CCN(C2=Nc3ccccc3Sc3ccccc32)CC1", 0],
  ["CCOC(=O)OC(C)OC(=O)[C@@H]1N2C(=O)[C@@H](NC(=O)[C@H](N)c3ccccc3)[C@H]2SC1(C)C (some centres not stated)", 0]
]}

State the recorded Hepatotoxicity (cirrhosis) for this entry: "CC[C@H]1OC(=O)[C@H](C)[C@@H](O[C@H]2C[C@@](C)(OC)[C@@H](O)[C@H](C)O2)[C@H](C)[C@@H](O[C@@H]2O[C@H](C)C[C@H](N(C)C)[C@H]2O)[C@](C)(O)C[C@@H](C)[C@@H]2N[C@@H](COCCOC)O[C@H]([C@H]2C)[C@]1(C)O" 0

State the recorded Hepatotoxicity (cirrhosis) for this entry: "CCOC(N)=O" 1

State the recorded Hepatotoxicity (cirrhosis) for this entry: "O=c1oc2ccccc2c(O)c1Cc1c(O)c2ccccc2oc1=O" 0

State the recorded Hepatotoxicity (cirrhosis) for this entry: "CC/C=C(\C(=O)N[C@@H]1C(=O)N2C(C(=O)OCOC(=O)C(C)(C)C)=C(COC(N)=O)CS[C@H]12)c1csc(N)n1" 0

----------
conditions: human, serum
Entry flag: Yes if Hepatotoxicity (acute) reaches 2; No if it does not.

Example entries and their recorded answers appear below.
{"columns": ["molecule", "discreteLabel"],
 "data": [
  ["CCOC(=O)c1cncn1[C@H](C)c1ccccc1 [ETOMIDATE]", "No"],
  ["CS[C@H]1SC[C@H]2C(=O)N(C)[C@@H](C(C)C)C(=O)OC[C@@H](NC(=O)c3cnc4ccccc4n3)C(=O)N[C@@H](C)C(=O)N(C)[C@@H]1C(=O)N(C)[C@@H](C(C)C)C(=O)OC[C@@H](NC(=O)c1cnc3ccccc3n1)C(=O)N[C@@H](C)C(=O)N2C", "Yes"],
  ["COc1nc(C)ccc1CN1CC1C#N (stereo not given) [CIAMEXON]", "No"],
  ["CN(C)CCC=C1c2ccccc2CCc2ccccc21", "Yes"],
  ["N[C@@H](Cc1cc(I)c(Oc2cc(I)c(O)c(I)c2)c(I)c1)C(=O)O", "No"]
]}

# bool: Hepatotoxicity (acute) of "COc1cc2oc(=O)c(C)c(C)c2cc1OCCCN1CCN(c2ccccc2OC)CC1" >= 2 No

# bool: Hepatotoxicity (acute) of CCC(C)n1ncn(-c2ccc(N3CCN(c4ccc(OCC5COC(Cn6cncn6)(c6ccc(Cl)cc6Cl)O5)cc4)CC3)cc2)c1=O (stereo not given) >= 2 Yes

# bool: Hepatotoxicity (acute) of "CC[C@@]1(O)C[C@H](O[C@H]2C[C@H](N(C)C)[C@H](O[C@H]3C[C@H](O)[C@H](O[C@H]4CCC(=O)[C@H](C)O4)[C@H](C)O3)[C@H](C)O2)c2c(cc3c(c2O)C(=O)c2c(O)cccc2C3=O)[C@H]1C(=O)OC" >= 2 No

# bool: Hepatotoxicity (acute) of "c1ccc2[nH]c(-c3cscn3)nc2c1" >= 2 Yes

# bool: Hepatotoxicity (acute) of "CNC(=O)[C@@H](NC(=O)[C@H](CC(C)C)[C@H](O)C(=O)NO)C(C)(C)C" >= 2 No

# bool: Hepatotoxicity (acute) of "CN(C)/N=N/c1[nH]cnc1C(N)=O" >= 2 Yes

# bool: Hepatotoxicity (acute) of "NC[C@H]1O[C@H](O[C@H]2[C@H](O)[C@@H](O[C@H]3O[C@H](CO)[C@@H](O)[C@H](N)[C@H]3O)[C@H](N)C[C@@H]2N)[C@H](N)C[C@@H]1O" >= 2 No

----------
conditions: human
endpointLabel: Hepatotoxicity (steatosis)
Format: numeric value only, no unit, no commentary.

{"columns": ["molecule", "Hepatotoxicity (steatosis)"],
 "data": [
  ["[Li]", 0],
  ["O=C1c2c(O)ccc(O)c2C(=O)c2c(NCCNCCO)ccc(NCCNCCO)c21", 0],
  ["CC(C)C(=O)Nc1ccc([N+](=O)[O-])c(C(F)(F)F)c1 [FLUTAMIDE]", 0],
  ["CNCCCN1c2ccccc2CCc2ccccc21", 0],
  ["CCN1CC(CCN2CCOCC2)C(c2ccccc2)(c2ccccc2)C1=O (stereo unspecified)", 1]
]}

State the recorded Hepatotoxicity (steatosis) for this entry: CC(=O)Nc1nnc(S(N)(=O)=O)s1 [ACETAZOLAMIDE] 1

State the recorded Hepatotoxicity (steatosis) for this entry: "Nc1nc(-c2ccccc2)c(Br)c(=O)[nH]1" 0

----------
conditions: human
endpointLabel: Hepatotoxicity (severe hepatitis)

{"columns": ["molecule", "Hepatotoxicity (severe hepatitis)"],
 "data": [
  ["CN1CCc2cccc3c2[C@H]1Cc1ccc(O)c(O)c1-3", 0]
]}

State the recorded Hepatotoxicity (severe hepatitis) for this entry: "CCCC[C@@H]1CC(=O)[C@]2(O)O[C@@H]3[C@@H](NC)[C@@H](O)[C@@H](NC)[C@H](O)[C@H]3O[C@@H]2O1" 0

State the recorded Hepatotoxicity (severe hepatitis) for this entry: COc1ccc(Cl)cc1C(=O)NCCc1ccc(S(=O)(=O)NC(=O)NC2CCCCC2)cc1 [GLYBURIDE] 0

State the recorded Hepatotoxicity (severe hepatitis) for this entry: "O=C(O)c1nn(Cc2ccc(Cl)cc2Cl)c2ccccc12" 0

State the recorded Hepatotoxicity (severe hepatitis) for this entry: O=[N+]([O-])O[C@H]1CO[C@H]2[C@@H]1OC[C@H]2O[N+](=O)[O-] [ISOSORBIDE DINITRATE] 0

State the recorded Hepatotoxicity (severe hepatitis) for this entry: "COc1ccc2[nH]cc(CCNC(C)=O)c2c1" 0

----------
Items are presented alongside their recorded Hepatotoxicity (steatosis).
settings: human
Format: numeric value only, no unit, no commentary.

{"columns": ["molecule", "observedResult"],
 "data": [
  ["O=C1Nc2ccc(Cl)cc2C(c2ccccc2Cl)=NC1O (stereo not drawn) [LORAZEPAM]", 0]
]}

State the recorded Hepatotoxicity (steatosis) for this entry: Cc1cccc(Nc2ccccc2C(=O)O)c1C [MEFENAMIC ACID] 0

State the recorded Hepatotoxicity (steatosis) for this entry: CC(=O)CC(c1ccc([N+](=O)[O-])cc1)c1c(O)c2ccccc2oc1=O (stereo not drawn) [ACENOCOUMAROL] 0

State the recorded Hepatotoxicity (steatosis) for this entry: CC(C)[C@](O)(C(=O)OCC1=CC[N+]2([O-])CC[C@@H](O)[C@@H]12)[C@H](C)O (stereo partly drawn) [INDICINE N-OXIDE] 0

State the recorded Hepatotoxicity (steatosis) for this entry: "CC1(C)S[C@@H]2[C@H](NC(=O)[C@H](N)c3ccc(O)cc3)C(=O)N2[C@H]1C(=O)O.O=C(O)[C@H]1/C(=C/CO)O[C@@H]2CC(=O)N21" 7

State the recorded Hepatotoxicity (steatosis) for this entry: CC(c1cc2ccccc2s1)N(O)C(N)=O (stereo not drawn) [ZILEUTON] 0
